Test: Drug concentration in brain tissue and plasma of SD rats
Assay type: in vivo
Conditions: male, Sprague-Dawley (SD), brain / plasma, po; SD rat, p.o. 30 mg/kg, 0.5 h; read-out: Brain-to-blood ratio
EXPERIMENTAL_ENDPOINT: Kp at 0.5 h

{"MOLECULE": "COc1ccc(-n2nccn2)c(C(=O)N2C(c3nc4ccc(OC)cc4[nH]3)CC3CC32)c1 (stereo not shown) [Compound 8]", "VALUE_REPORTED": 0.25}

###

Test: Pharmacokinetic parameters in SD rat plasma
Type: in vivo
Conditions: male, Sprague-Dawley (SD), plasma, iv, i.v. 2 mg/kg
EXPERIMENTAL_ENDPOINT: clearance

{"COMPOUND": "COc1ccc(-n2nccn2)c(C(=O)N2C(c3nc4ccc(OC)cc4[nH]3)CC3CC32)c1 (stereo not shown)", "VALUE_REPORTED": "44 mL/min/kg"}

###

Assay: Drug concentration in brain tissue and plasma of SD rats
Format: in vivo
Details: male, Sprague-Dawley (SD), plasma, po; SD rat, p.o. 30 mg/kg, 2 h; read-out: Drug concentration in plasma
Procedure: 4 healthy SD rats aged 6-9 weeks were selected, and the […] given the test compound at 10 mg/kg by intragastric administration. 2 animals were randomly selected at 0.5 h and 2 h after administration, respectively. Plasma and brain tissue samples were collected, and LC-MS/MS method was used for quantitative analysis of all biological samples. 4 healthy male SD rats aged 6-9 weeks were selected and given the test compound by intragastric administration. […]

{"COMPOUND": "COc1ccc(-n2nccn2)c(C(=O)N2C(c3nc4ccc(OC)cc4[nH]3)CC3CC32)c1 (stereo not shown) [Compound 8]", "concentration at 2 h, nM": 1100}

###

Assay: Drug concentration in cerebrospinal fluid of Beagle dogs
Type: in vivo
Conditions: male, po, Beagle dog, p.o. 5 mg/kg, 6 h
Method: 2 healthy male Beagle dogs were selected, and after intragastric administration of the test compound at 5 mg/kg, cerebrospinal fluid samples were taken at 0.5 h, 2 h and 6 h after the administration, respectively. […]
EXPERIMENTAL_ENDPOINT: concentration at 6 h (nM)

{"COMPOUND": "COc1ccc(-n2nccn2)c(C(=O)N2C(c3nc4ccc(OC)cc4[nH]3)CC3CC32)c1 (stereo not shown) [Compound 8]", "VALUE_REPORTED": 110}

###

Assay: Pharmacokinetic parameters in SD rat plasma
Assay type: in vivo
Details: male, Sprague-Dawley (SD), plasma, po, p.o. 10 mg/kg
EXPERIMENTAL_ENDPOINT: Tmax (min)

{"MOLECULE": "COc1ccc(-n2nccn2)c(C(=O)N2C(c3nc4ccc(OC)cc4[nH]3)CC3CC32)c1 (stereo not shown)", "EXPERIMENTAL_ENDPOINT": "Tmax", "UNITS_TEXT": "min", "VALUE_REPORTED": 15}

###

Test: Drug concentration in brain tissue and plasma of SD rats
Assay type: in vivo
Details: male, Sprague-Dawley (SD), brain / plasma, po; SD rat, p.o. 30 mg/kg, 2 h; read-out: Brain-to-blood ratio

{"MOLECULE": "COc1ccc(-n2nccn2)c(C(=O)N2C(c3nc4ccc(OC)cc4[nH]3)CC3CC32)c1 (stereo not shown)", "Kp at 2 h": 0.19}

###

Test: Pharmacokinetic parameters in Beagle dog plasma
Type: in vivo
Conditions: male, plasma, iv, i.v. 1 mg/kg
EXPERIMENTAL_ENDPOINT: half-life (h)

{"MOLECULE": "COc1ccc(-n2nccn2)c(C(=O)N2C(c3nc4ccc(OC)cc4[nH]3)CC3CC32)c1 (stereo not shown)", "VALUE_REPORTED": 2.79}

###

Assay: Pharmacokinetic parameters in Beagle dog plasma
Format: in vivo
Conditions: male, plasma, po, p.o. 5 mg/kg

{"COMPOUND": "COc1ccc(-n2nccn2)c(C(=O)N2C(c3nc4ccc(OC)cc4[nH]3)CC3CC32)c1 (stereo not shown) [Compound 8]", "UNITS_TEXT": "µM·h", "AUC(0-t)": 26.2}

###

Experiment: Pharmacokinetic parameters in SD rat plasma
Format: in vivo
Settings: male, Sprague-Dawley (SD), plasma, iv, i.v. 2 mg/kg, read-out: Vdss

{"COMPOUND": "COc1ccc(-n2nccn2)c(C(=O)N2C(c3nc4ccc(OC)cc4[nH]3)CC3CC32)c1 (stereo not shown)", "Vd / L/kg": 0.57}

###

Assay: Drug concentration in cerebrospinal fluid of Beagle dogs
Assay type: in vivo
Conditions: male, po, Beagle dog, p.o. 5 mg/kg, 0.5 h

{"COMPOUND": "COc1ccc(-n2nccn2)c(C(=O)N2C(c3nc4ccc(OC)cc4[nH]3)CC3CC32)c1 (stereo not shown)", "concentration at 0.5 h [nM]": 1160}

###

Target: OX1R (Homo sapiens)
Sequence (O43613 1-425): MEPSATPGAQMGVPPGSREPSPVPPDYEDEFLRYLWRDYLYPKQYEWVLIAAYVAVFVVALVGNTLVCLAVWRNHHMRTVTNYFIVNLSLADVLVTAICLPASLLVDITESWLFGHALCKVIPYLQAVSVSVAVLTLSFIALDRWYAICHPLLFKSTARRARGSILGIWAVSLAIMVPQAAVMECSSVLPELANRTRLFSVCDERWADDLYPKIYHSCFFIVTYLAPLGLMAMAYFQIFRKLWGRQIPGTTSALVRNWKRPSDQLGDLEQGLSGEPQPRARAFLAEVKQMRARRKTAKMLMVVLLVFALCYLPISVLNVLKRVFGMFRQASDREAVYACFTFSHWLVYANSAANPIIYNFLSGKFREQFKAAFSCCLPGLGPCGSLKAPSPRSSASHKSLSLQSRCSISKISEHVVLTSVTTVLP
Test: FLIPR intracellular calcium antagonism test, HEK293-OX1R cells
Conditions: Orexin A at EC70, read-out: hOXIR IC50
IC50: recorded values

{"STRUCTURE": "COc1ccc(-n2nccn2)c(C(=O)N2C[C@@H]3C[C@@H]3[C@H]2c2nc3ccc(OC)cc3[nH]2)c1", "IC50": "462 nM"}
{"STRUCTURE": "COc1ccc2[nH]c([C@@H]3C[C@H]4C[C@H]4N3C(=O)c3cc(F)ccc3-n3nccn3)nc2c1", "IC50": "3600 nM"}
{"STRUCTURE": "COc1ccc2nc([C@@H]3C[C@H]4C[C@H]4N3C(=O)c3ccccc3-n3nccn3)[nH]c2c1", "IC50": "> 10000 nM"}
{"STRUCTURE": "COc1ccc2[nH]c([C@@H]3C[C@H]4C[C@H]4N3C(=O)c3ccc(C)cc3-n3nccn3)nc2c1", "IC50": "710 nM"}
{"STRUCTURE": "COc1ccc2nc([C@@H]3[C@H]4C[C@H]4CN3C(=O)c3cc(C)ccc3-n3nccn3)[nH]c2c1", "IC50": "337 nM"}
{"STRUCTURE": "COc1ccc2nc([C@@H]3C[C@H]4C[C@H]4N3C(=O)c3ccc(F)cc3-n3nccn3)[nH]c2c1", "IC50": "3170 nM"}

###

Assay: Pharmacokinetic parameters in SD rat plasma
Assay type: in vivo
Conditions: male, Sprague-Dawley (SD), plasma, iv, i.v. 2 mg/kg

{"MOLECULE": "COc1ccc(-n2nccn2)c(C(=O)N2C(c3nc4ccc(OC)cc4[nH]3)CC3CC32)c1 (stereo not shown)", "half-life / min": 12}

###

IC50: recorded values
Target: OX2R (Homo sapiens, UniProt O43614)
Sequence (O43614 whole entry): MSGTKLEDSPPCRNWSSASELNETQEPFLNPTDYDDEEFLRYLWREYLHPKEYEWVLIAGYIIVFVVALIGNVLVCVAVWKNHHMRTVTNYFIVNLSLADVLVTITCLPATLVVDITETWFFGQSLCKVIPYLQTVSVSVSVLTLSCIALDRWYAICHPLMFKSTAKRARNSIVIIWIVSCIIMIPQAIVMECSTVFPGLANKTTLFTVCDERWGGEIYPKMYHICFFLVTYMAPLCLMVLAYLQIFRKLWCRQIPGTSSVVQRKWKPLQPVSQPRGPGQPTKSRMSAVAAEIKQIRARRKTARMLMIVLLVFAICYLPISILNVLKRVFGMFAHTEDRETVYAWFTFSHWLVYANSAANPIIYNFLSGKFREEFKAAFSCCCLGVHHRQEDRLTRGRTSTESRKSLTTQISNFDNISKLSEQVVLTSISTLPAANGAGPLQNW
Experiment: FLIPR intracellular calcium antagonism test, HEK293-OX2R cells
Conditions: Orexin A at EC70, read-out: hOX2R IC50
EXPERIMENTAL_ENDPOINT: IC50 (nM)

{"COMPOUND": "COc1ccc2[nH]c([C@@H]3C[C@H]4C[C@H]4N3C(=O)c3cc(Cl)ccc3-n3nccn3)nc2c1", "EXPERIMENTAL_ENDPOINT": "IC50", "VALUE_REPORTED": 30}
{"COMPOUND": "COc1ccc2nc([C@@H]3[C@H]4C[C@H]4CN3C(=O)c3ccccc3-n3nccn3)[nH]c2c1", "EXPERIMENTAL_ENDPOINT": "IC50", "VALUE_REPORTED": 25}
{"COMPOUND": "COc1ccc2nc([C@@H]3C[C@H]4C[C@H]4N3C(=O)c3cc(C)ccc3-n3nccn3)[nH]c2c1", "EXPERIMENTAL_ENDPOINT": "IC50", "VALUE_REPORTED": 24}
{"COMPOUND": "COc1ccc2[nH]c([C@@H]3C[C@H]4C[C@H]4N3C(=O)c3cc(F)ccc3-n3nccn3)nc2c1", "EXPERIMENTAL_ENDPOINT": "IC50", "VALUE_REPORTED": 33}
{"COMPOUND": "COc1ccc2nc([C@@H]3[C@H]4C[C@H]4CN3C(=O)c3c(F)cccc3-n3nccn3)[nH]c2c1", "EXPERIMENTAL_ENDPOINT": "IC50", "VALUE_REPORTED": 299}
{"COMPOUND": "COc1ccc2[nH]c([C@@H]3C[C@H]4C[C@H]4N3C(=O)c3ccc(C)cc3-n3nccn3)nc2c1", "EXPERIMENTAL_ENDPOINT": "IC50", "VALUE_REPORTED": 17}
{"COMPOUND": "COc1ccc2nc([C@@H]3C[C@H]4C[C@H]4N3C(=O)c3ccccc3-n3nccn3)[nH]c2c1", "EXPERIMENTAL_ENDPOINT": "IC50", "VALUE_REPORTED": 72}
{"COMPOUND": "COc1ccc(-n2nccn2)c(C(=O)N2C[C@@H]3C[C@@H]3[C@H]2c2nc3ccc(OC)cc3[nH]2)c1", "EXPERIMENTAL_ENDPOINT": "IC50", "VALUE_REPORTED": 64}
{"COMPOUND": "COc1ccc2nc([C@@H]3[C@H]4C[C@H]4CN3C(=O)c3cc(C)ccc3-n3nccn3)[nH]c2c1", "EXPERIMENTAL_ENDPOINT": "IC50", "VALUE_REPORTED": 96}
{"COMPOUND": "COc1ccc2[nH]c([C@@H]3C[C@H]4C[C@H]4N3C(=O)c3cc(C)ccc3-c3ncccn3)nc2c1", "EXPERIMENTAL_ENDPOINT": "IC50", "VALUE_REPORTED": 60}
{"COMPOUND": "COc1ccc2[nH]c([C@@H]3C[C@H]4C[C@H]4N3C(=O)c3c(F)cccc3-n3nccn3)nc2c1", "EXPERIMENTAL_ENDPOINT": "IC50", "VALUE_REPORTED": 81}
{"COMPOUND": "COc1ccc2nc([C@@H]3C[C@H]4C[C@H]4N3C(=O)c3ccc(F)cc3-n3nccn3)[nH]c2c1", "EXPERIMENTAL_ENDPOINT": "IC50", "VALUE_REPORTED": 42}
{"COMPOUND": "COc1ccc(-n2nccn2)c(C(=O)N2C(c3nc4ccc(OC)cc4[nH]3)CC3CC32)c1 (stereo not shown)", "EXPERIMENTAL_ENDPOINT": "IC50", "VALUE_REPORTED": 42}
